test system: RPMI-8402 cells; assay: Single agent screening, alamarBlue proliferation assay; format: cell-based; settings: Homo sapiens, RPMI-8402, 72 hours, read-out: IC50 (μM) values of drugs used as single agent
Assay Readout: IC50 (µM)
Note: unit µM is implicit; provide only the numeric part.

{"Molecule": "CC1(C)CCC(c2ccc(Cl)cc2)=C(CN2CCN(c3ccc(C(=O)NS(=O)(=O)c4ccc(N[C@H](CCN5CCOCC5)CSc5ccccc5)c(S(=O)(=O)C(F)(F)F)c4)cc3)CC2)C1", "Unit": "µM", "IC50": 5.5}

Pending molecule:
Request - read-out IC50 | tested on RPMI-8402 cells | molecule Cc1c(-c2c(-c3ccc(F)o3)sc3ncnc(O[C@H](Cc4ccccc4OCc4ccnn4CC(F)(F)F)C(=O)O)c23)ccc(OCCN2CCN(C)CC2)c1Cl (atropisomer, axis not shown)
0.04

Value source: patent US20240041884A1
